Test system: HCC 2998
Test: NCI tumour cell line growth inhibition, 48 h
Activity calls are given as the source filed them. No stated cut-off is given here; in the data, active = GI50 up to about 1.1 µM and inactive = higher.
Choose one outcome from this list and give only that: active, inactive

Recorded results for 6 compounds are shown here.
C[n+]1c(-c2ccc(/C=N/NC(=O)c3ccc(C(=O)N/N=C/c4ccc(-c5cn6ccccc6[n+]5C)cc4)cc3)cc2)cn2ccccc21    inactive
COC(=O)C1(F)C(=O)NC(=O)NC1O (stereo unspecified)    inactive
COC(=O)/C=c1\s/c(=C\C(=O)OC)c2ccccc12    inactive
CCn1c(SCC(=O)N/N=C/c2ccccc2)nc2ccccc2c1=O    inactive
CC1C=C[C@H](Sc2ccccc2)CC[C@@]1(C)O (stereo partly specified)    inactive
O=c1c2ccccc2n2n1Cc1ccccc1C2    inactive

Q. // outcome(item) with item = Cc1ccc(C2[C@H]3C(=O)N(c4ccc(Cc5ccc(N6C(=O)[C@@H]7ON(c8ccccc8)C(c8ccc(C)cc8)[C@@H]7C6=O)cc5)cc4)C(=O)[C@H]3ON2c2ccccc2)cc1 (stereo partly specified)
A. inactive

Q. // outcome(item) with item = "CCN1CCCc2cc3c(C(F)(F)F)cc(=O)oc3cc21"
A. inactive

Q. // outcome(item) with item = "CCOc1ccc2c(c1)[n+]([O-])c(-c1nc3ccccc3s1)c(N)[n+]2[O-]"
A. inactive

Q. // outcome(item) with item = "O=c1[nH]nc2ccccc2c1Cc1ccccc1"
A. inactive

Q. // outcome(item) with item = CC12CCC3C(CCC4=CC(O)CCC43C=O)C1(O)CCC2c1ccc(=O)oc1 (stereo unspecified)
A. active

Q. // outcome(item) with item = CC(=O)C1CC(C)=CCC12C(=O)Nc1ccccc12 (stereo unspecified)
A. inactive

---

Tested on: IGROV-1
Assay: NCI tumour cell line growth inhibition, 48 h
The source made the active and inactive calls. No stated cut-off is given here; in the data, active = GI50 up to about 1.1 µM and inactive = higher.
readoutKind: GI50

CC(=O)Nc1ccc(C2C(C(=O)Nc3ccccc3C)=C(C)NC(C)=C2C(=O)Nc2ccccc2C)cc1    > 100 µM (inactive)
CCC1C(=O)C[C@H]2[C@@H]3C(O)CC4=CC(=O)CC[C@]4(C)[C@H]3CC[C@]12C (stereo not given in full)    > 50 µM (inactive)
C=C(Cl)C(Br)(CCl)CCC(Br)C(C)(C)Cl (stereo not given)    5.82 µM (inactive)

Entry CC(CO)(CO)N1C(=O)C2C3C=CC(C3)C2C1=O (stereo not given) — recorded GI50 = > 100 µM (inactive)

Entry COc1cc(C=C2C(C)=NN(c3cccc(Cl)c3)C23C(Cl)C(=O)N3c2nc3ccccc3s2)ccc1O (stereo not given) — recorded GI50 = 15.8 µM (inactive)

Entry COC1OC(C)C(O)CC1OS(=O)(=O)c1ccc(C)cc1 (stereo not given) — recorded GI50 = > 100 µM (inactive)

---

Tested on: BT-549
Assay: NCI tumour cell line growth inhibition, 48 h
Active and inactive are the calls of the source. No stated cut-off is given here; in the data, active = GI50 up to about 1.1 µM and inactive = higher.
readoutKind: GI50

Before answering, review these 3 worked examples.
C=CCOn1c(C=C)nc2ccc(C)cc21    19.7 µM (inactive)
O=C(O)C(Cc1cccs1)C(=O)O    > 100 µM (inactive)
NC(=O)c1oc([N+](=O)[O-])c(-c2ccccc2)c1-c1ccccc1    8 µM (inactive)

Next item in the queue.
Entry CC1OC(n2cc(F)c(=O)[nH]c2=O)CCC1O (centres undefined) — recorded GI50 = > 100 µM (inactive)

---

Test system: NCI-H460
Experiment: NCI tumour cell line growth inhibition, 48 h
The source made the active and inactive calls. Rule as the data show it: active = GI50 up to about 1.1 µM and inactive = higher.
readoutKind: GI50

C#C[C@H](CCCC)OC(=O)N[C@H](C)c1ccccc1    58.2 µM (inactive)
C/C(=N\N=C(/S)N1CCCCCC1)c1cccc[n+]1[O-]    1.8 µM (inactive)
NCCCNCCS    > 100 µM (inactive)
CN(C)Cc1cc(C(=O)/C=C/c2ccc(F)cc2)cc(CN(C)C)c1O    10.5 µM (inactive)
CC(C)=CCc1c(O)c(CC=C(C)C)c2oc(-c3ccc(O)cc3O)c(CC=C(C)C)c(=O)c2c1O    4.48 µM (inactive)
Cc1cc2[n-][n+]3ncc(-c4ccccc4)n3c2cc1[N+](=O)[O-]    > 100 µM (inactive)
CCC1(O)CN(CCOC)[C@H]2C[C@@H]1C(=O)c1[nH]c3ccccc3c12 (stereo partly specified)    > 100 µM (inactive)
Cc1cccc(NC(=O)C(=O)C2C(=O)NC(=O)NC2=O)c1C    > 100 µM (inactive)

I looked up "CSCCC(NC(=O)OCc1ccccc1)NC(=O)OCc1ccccc1" and its GI50 for NCI-H460 was > 100 µM (inactive)

I looked up "CSc1c(C#N)c(N)n(-c2ccc(C)cc2)c(=O)c1C#N" and its GI50 for NCI-H460 was > 100 µM (inactive)

I looked up "C[S+](C)CCOC(=O)C(=[N+]=[N-])c1ccc([N+](=O)[O-])cc1" and its GI50 for NCI-H460 was > 100 µM (inactive)

---

Test system: UACC-257
Assay: NCI tumour cell line growth inhibition, 48 h
The source made the active and inactive calls. No stated cut-off is given here; in the data, active = GI50 up to about 1.1 µM and inactive = higher.
Choose one outcome from this list and give only that: active, inactive

CC12CCC3C(CCC4=CC(O)CCC43C=O)C1(O)CCC2c1ccc(=O)oc1 (stereo not given)    active
COc1cc(C=C2C(C)=NN(c3cccc(Cl)c3)C23C(Cl)C(=O)N3c2nc3ccccc3s2)ccc1O (stereo not given)    inactive
C/C(=N\N=C(/S)N1CCCCCC1)c1cccc[n+]1[O-]    inactive
O=C(c1ccc(Cl)cc1)N(C(=S)N1CCN(c2ccccn2)CC1)C1CCCCC1    inactive
CCC(CC)NC1=C(NC(C)=O)C(=O)c2ccccc2C1=O    inactive
COc1ccc(NC2Oc3cc4c(cc3C(c3cc(OC)c(O)c(OC)c3)C2C)OCO4)cc1 (stereo not given)    inactive
CCOC(=O)C1=COC(C)(C)CC1=O    inactive
Nc1ccc(-c2nn3c(COc4ccc(Cl)cc4)nnc3s2)cc1    inactive
COc1ccc2cc(CN3CCC(C4CCN(Cc5ccc6cc(OC)ccc6c5)CC4)CC3)ccc2c1    inactive

Turning now to a further molecule:
Q. // outcome(item) with item = CC(C)[Si]1(C(C)C)OCC2OC(n3ccc(=O)[nH]c3=O)C(O)(CO)C2O[Si](C(C)C)(C(C)C)O1 (stereo not given)
A. inactive

---

GI50 for assorted molecules
Tested on: NCI-H522
Experiment: NCI tumour cell line growth inhibition, 48 h
Calls of active or inactive are those of the source. Rule as the data show it: active = GI50 up to about 1.1 µM and inactive = higher.

Entry "CNC(=O)[C@H](Cc1ccccc1)NC(=O)N(CCC#N)CCN(C(=O)N[C@@H](Cc1ccccc1)C(=O)OC)c1ccccc1" — recorded GI50 = > 100 µM (inactive)

Entry "CC(C)/C(=N\[N+](C)(C)C)c1ccccc1" — recorded GI50 = > 100 µM (inactive)

Entry "COC(=O)/C=c1\s/c(=C\C(=O)OC)c2ccccc12" — recorded GI50 = > 100 µM (inactive)

Entry "CCCN1C(=O)CCC2=C1CCc1c2ccc(Cl)c1Cl" — recorded GI50 = 23.3 µM (inactive)

---

Tested on: SF-295
Assay: NCI tumour cell line growth inhibition, 48 h
The source made the active and inactive calls. Cut-off read from the data, not from the text of the source: active = GI50 up to about 1.1 µM and inactive = higher.
GI50 for assorted compounds

Before answering, review these 5 worked examples.
Nc1cc(O)nc(SC2=NC(N)CC(O)C2)n1 (configuration not stated)    > 100 µM (inactive)
CCOC(=O)c1nc2ccc(Cl)cc2c2c1CCO2    > 100 µM (inactive)
O=C(CCCl)NN=C1NCCCN1    > 100 µM (inactive)
Cc1cc(NS(=O)(=O)c2ccc(Nc3c4ccccc4nc4c(C(=O)NCCN(C)C)cccc34)cc2)no1    8.38 µM (inactive)
O=C(c1ccc(Cl)cc1)N(C(=S)N1CCN(c2ccccn2)CC1)C1CCCCC1    74.1 µM (inactive)

Entry "CN[C@@H](C)[C@@H](NC)c1ccccc1" — recorded GI50 = > 100 µM (inactive)

Entry "O=C(OCC12CC3CC(CC(C3)C1)C2)c1ccc(NCc2cc(O)ccc2O)cc1" — recorded GI50 = 3.76 µM (inactive)

Entry Cc1c2n(c(=O)[nH]c1=O)C1OC(CO)C(O2)C1O (configuration not stated) — recorded GI50 = > 100 µM (inactive)

Entry CC1OC(=O)C(O)=C1O (configuration not stated) — recorded GI50 = > 100 µM (inactive)

Entry "CCCNC(=O)Cn1c(C)cc2ccccc21" — recorded GI50 = > 10 µM (inactive)

Entry COC(=O)C1[C@@H](C(=O)OC)C12C=Cc1ccccc1C=C2 (some centres not stated) — recorded GI50 = > 100 µM (inactive)

Entry COc1ccc(NC2Oc3cc4c(cc3C(c3cc(OC)c(O)c(OC)c3)C2C)OCO4)cc1 (configuration not stated) — recorded GI50 = 4.78 µM (inactive)

---

Tested on: NCI-H522
Assay: NCI tumour cell line growth inhibition, 48 h
Activity calls are given as the source filed them. Cut-off read from the data, not from the text of the source: active = GI50 up to about 1.1 µM and inactive = higher.
Choose one outcome from this list and give only that: active, inactive

C=C1N(C)c2ccc(S(=O)(=O)c3ccc4c(c3)C(C)(C)C(=C)N4C)cc2C1(C)C    inactive

Q. // outcome(item) with item = "CC(C)=CCc1c(O)c(CC=C(C)C)c2oc(-c3ccc(O)cc3O)c(CC=C(C)C)c(=O)c2c1O"
A. inactive

Q. // outcome(item) with item = "O=C1OC(c2ccccc2Br)=N/C1=C/c1ccccc1"
A. inactive

Q. // outcome(item) with item = CC(=O)O[C@]12CCCCC1C1(O)C(O)CCCC[C@H]12 (stereo not given in full)
A. inactive

Q. // outcome(item) with item = CCC(Sc1cc(Cl)c(C)cc1S(=O)(=O)Nc1nc(N)nc(N(C)C)n1)C(=O)O (stereo not given)
A. inactive

Q. // outcome(item) with item = COc1ccc(NC2Oc3cc4c(cc3C(c3cc(OC)c(O)c(OC)c3)C2C)OCO4)cc1 (stereo not given)
A. inactive

Q. // outcome(item) with item = "ON(CCc1ccccn1)Cc1ccccc1"
A. inactive

Q. // outcome(item) with item = CC(ON1[C@](C)(c2ccccc2)CC[C@@]1(C)c1ccccc1)c1ccccc1 (stereo not given in full)
A. inactive

Q. // outcome(item) with item = CCC(C)C(=O)c1c(O)c(C/C=C(\C)CCC=C(C)C)c(O)c2c(C(O)CC)cc(=O)oc12 (stereo not given)
A. active

Q. // outcome(item) with item = "NC(=O)c1oc([N+](=O)[O-])c(-c2ccccc2)c1-c1ccccc1"
A. inactive
